- Test system: BT-549 breast
- test description: NCI tumour cell line growth inhibition, 48 h
endpoint: TGI

compound: CCC1=NC(C(F)(F)F)(C(F)(F)F)N=C(/N=C(/N)N(C)C(C(C)C)P(=O)(OC(C)C)OC(C)C)O1 (stereo not given)
TGI: > 100 µM

compound: CN(O)C(=S)c1ccccc1
TGI: > 100 µM

compound: Cc1nnc(-c2ccc(C)c(-c3ccc(C(=O)NCc4ccc(Cl)cc4)cc3)c2)o1
TGI: > 25 µM

What measured TGI goes with COC(=O)C1=C(C(=O)OC)C2OC1c1cc3ccccc3cc12 ? 12 µM

And the next one, COc1ccc2nc3n(c2c1)C(c1c(Cl)cccc1Cl)SC3 (stereo not given) ? > 100 µM

And the next one, O=C(Nc1nc(C23CC4CC(CC(C4)C2)C3)cs1)c1cc2c(ccc3ccccc32)oc1=O ? > 100 µM

And the next one, Oc1ccc(-c2cn3cc(C(F)(F)F)ccc3n2)cc1 ? > 100 µM

And the next one, NC(N)=NC(N)=Nc1ccccc1 (tested in a mixture with another compound) ? > 100 µM

And the next one, CN(C)c1ccc(C(=NN)c2ccc(N(C)C)cc2)cc1 ? > 100 µM

And the next one, CO[C@@H]1[C@H]2[C@@H](C)c3ccoc3C[C@@H]2[C@@]2(C)CC[C@H](OC(=O)c3ccccc3)[C@](C)(C(=O)O)[C@]2(O)[C@@H]1OC(=O)c1ccccc1 ? 29.7 µM
